Data provenance is the RepoRT retention time repository (doi:10.1016/j.jhazmat.2019.121712).

Kindly state LC retention time for each of the entries shown.
Protocol Details: Thermo Scientific Acclaim RSLC 120 C18, 100 × 2.1 mm, 2.2 µm, 30 °C; A: 90% water + 10% methanol + 0.01% formic acid + 5 mM ammonium formate; B: methanol + 0.01% formic acid + 5 mM ammonium formate; gradient (min/%B) 0.1/1 3/39 14/99.9 16/99.9
Condition Summary: stereoisomer not certain
Give bare numbers, in min.

Would you mind listing LC retention time for each of the following compounds?
1. C[N+](C)([O-])CCC(c1ccccc1)c1ccccn1 (stereo unspecified)
2. CCC(=O)C(CCN(C)C)(c1ccccc1)c1ccccc1
3. COP(=S)(OC)Oc1ccc(S(=O)(=O)N(C)C)cc1

**A:**
5.39
7.68
7.99
